Cited source: patent US20030236190A1

- TARGET_OR_TEST_SYSTEM: T1, Soluble IGF-1R (R&D Systems, Cat. # 391-GR/CF); recombinant human IGF-1R (human, UniProt P08069 31-935)
- T1 construct: extracellular domain; Eu3+-labelled in the TR-FRET assays; also called sIGF-1R; rhIGF-1R
- METHOD_SUMMARY: phage ELISA vs milk
Positions of bridges follow the written chain, without caps; N, C: chain ends. No end group written: not given here.
Each entry below carries its reported Ratio over Background.

| BINDER | UNIT_TAG | Ratio over Background |
| --- | --- | --- |
| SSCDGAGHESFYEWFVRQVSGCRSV (not fully specified (bridges); cysteine pairing not given here) [H2CA-3-C8-IGFR] | fold | 5.6 |
| GCEVIVEEGDSADPFYHKLSELCQGS (disulfide 2-23 (inferred)) [B6Hα-2-D1-IR] | fold | 5.4 |
| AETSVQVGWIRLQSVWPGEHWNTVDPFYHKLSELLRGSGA [B6L-4-D7-IR] | fold | 4.8 |
